# protocol: Cell Viability - LYMP2-022 (AID 987);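 also: cells exposed to compound for 24 hr; nearly all actives have a fitted effect of over 55% in size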
# experimental_context: LYMP2-022 lymphoblastoid cell viability; series mostly up to 92.2 µM
Results filed as inconclusive are left out. Calls of active or inactive are those of the source. Calls follow the shape of the dose curve; as a rule, active = well fitted cell-killing curve with a large enough effect; inconclusive = small, poorly fitted or top-dose-only effect; inactive = flat fitted curve, though single readings scatter.
Bench note: report the call from 1 for active, -1 for inactive

Prompt: Any idea what this test logged for `Oc1ccccc1` ?
Completion: -1

Prompt: Could you please tell me the result logged for `OCc1c[nH]c2ccccc12` in this assay?
Completion: -1

Prompt: Check the results log: what was the call for `O=C(Oc1ccccc1)c1ccccc1O` ?
Completion: -1

Prompt: Dear all, I need the recorded test outcome for `Brc1ccccc1-c1ccccc1` , thank you.
Completion: -1

Prompt: So what was the verdict on `CC(C)(c1ccc(O)cc1)c1ccc(O)cc1` in this test?
Completion: -1

Prompt: // return assay outcome for `Nc1c2ccccc2nc2ccccc12`
Completion: 1

Prompt: Dear colleague, could you share the recorded outcome for `O=C(c1ccccc1)c1ccccc1` when you have a moment?
Completion: -1

Prompt: Per the records of this test, what outcome belongs to `Nc1ccc(O)cc1` ?
Completion: 1

Prompt: Recorded test call requested for `c1ccc2occc2c1`
Completion: -1

Prompt: State the result this test recorded for `CC(=O)OC/C=C(C)/C=C/C=C(C)/C=C/C1=C(C)CCCC1(C)C` .
Completion: 1

Prompt: Assay outcome for `CCCC(=O)c1cc(O)c(O)cc1O` : what was it?
Completion: -1

Prompt: Record lookup: outcome of this test for `CC(C)(C)c1ccc(O)c(O)c1` ?
Completion: 1

----------
# Test system: ICS
# protocol: qHTS profiling for inhibitors of Plasmodium falciparum proliferation (AID 504749); also: nearly all actives have a fitted effect of over 60% in size
# experimental_context: P. falciparum in erythrocytes, SYBR Green DNA, 72 h; series mostly up to 28.7 µM
Inconclusive results are not listed. Calls of active or inactive are those of the source. Calls follow the shape of the dose curve; as a rule, active = well fitted inhibition curve with a large enough effect; inconclusive = small, poorly fitted or top-dose-only effect; inactive = flat fitted curve, though single readings scatter.
# valid calls are T for active, F for inactive; nothing else

Prompt: Per the records of this test, what outcome belongs to `O=S(=O)(O)c1ccc2nc(-c3ccccc3)[nH]c2c1` ?
Completion: F

Prompt: What did this assay record as the result for `O=[N+]([O-])c1ccc(O)c2ncccc12` ?
Completion: T

Prompt: Kindly provide the recorded test outcome for the following molecule: `CCCCCCCCCCCCCC[N+](C)(C)C`
Completion: T

Prompt: Name the outcome recorded for `CCCCCCCCCCCCCCCC[n+]1ccccc1` in the assay.
Completion: T

Prompt: Could you kindly confirm the outcome this assay logged for `CCCCCCCCCCCCCCCC[N+](C)(C)Cc1ccccc1` ?
Completion: T

Prompt: Dear colleague, could you share the recorded outcome for `Nc1ccc2cc3ccc(N)cc3nc2c1` when you have a moment?
Completion: T

Prompt: What call does the record list for `O=C(Nc1ccc(Cl)cc1)Nc1ccc(Cl)c(Cl)c1` ?
Completion: T

Prompt: Fill in: this test's call for `Nc1ncnc2nc[nH]c12` is ___
Completion: F

Prompt: Per the records of this test, what outcome belongs to `Nc1c2ccccc2nc2ccccc12` ?
Completion: T

----------
# protocol: qHTS of pediatric cancer cell lines to identify multiple opportunities for drug repurposing: Confirmatory screen for A673 cells (AID 1347110);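 also: cells exposed to compound for 48 h before the viability read; nearly all actives have a fitted effect of over 65% in size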
# experimental_context: A673 Ewing sarcoma cell viability; series mostly up to 45.9 µM
Results filed as inconclusive are left out. Active and inactive are the calls of the source. Calls follow the shape of the dose curve; as a rule, active = well fitted cell-killing curve with a large enough effect; inconclusive = small, poorly fitted or top-dose-only effect; inactive = flat fitted curve, though single readings scatter.
Field 'call' accepts active, inactive

Prompt: Hi team, can someone confirm the assay call for `CCOC(=O)O[C@]1(C(=O)OCCl)CC[C@H]2[C@@H]3CCC4=CC(=O)C=C[C@]4(C)[C@H]3[C@@H](O)C[C@@]21C` ?
Completion: inactive

Prompt: Any idea what this test logged for `CCC1=C[C@@H]2CN(C1)Cc1c([nH]c3ccccc13)[C@@](C(=O)OC)(c1cc3c(cc1OC)N(C)[C@H]1[C@@](O)(C(=O)OC)[C@H](OC(C)=O)[C@]4(CC)C=CCN5CC[C@]31[C@@H]54)C2` ?
Completion: active

Prompt: How was `Nc1ccc2cc3ccc(N)cc3nc2c1` classified in this test?
Completion: active

Prompt: Could you please tell me the result logged for `Cc1cc(OCCOCC[N+](C)(C)Cc2ccccc2)ccc1C(C)(C)CC(C)(C)C` in this assay?
Completion: active

----------
Consider the following molecules; for each one, report its activity change, negative = inhibition.
# protocol: AP1 Signaling Pathway (AID 357);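 also: ME-180 reporter cells stimulated with EGF at its EC50 level; % is scaled to controls: 0 for no effect and ±100 for the full control effect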
# experimental_context: ME-180 (cervical carcinoma) AP-1-bla reporter, EGF-induced, beta-lactamase ratio, 5 h; at 17.2 µM (top of the series) unless noted
Results filed as inconclusive are left out. The source made the active and inactive calls. Calls come from the whole dose curve; as a rule, active = well fitted curve in either direction with a large enough effect (not every such curve was filed as active); inconclusive = small, poorly fitted or top-dose-only effect, or another doubt; inactive = flat fitted curve, though single readings scatter.

Prompt: Name the recorded activity change, negative = inhibition for OCCOCCN1CCN(C(c2ccccc2)c2ccc(Cl)cc2)CC1 (configuration not stated) .
Completion: 3.37% (inactive)

Prompt: Consider the molecule shown here: `CCOC(=O)NNc1nncc2ccccc12` What is its recorded activity change, negative = inhibition?
Completion: -6.72% (inactive)

Prompt: Report activity change, negative = inhibition for `O=C(O)c1ccccc1S` please.
Completion: -3.14% (inactive)

Prompt: Requested read-out: activity change, negative = inhibition. Entry: `Brc1ccc([C@H]2CN3CCSC3=N2)cc1`
Completion: 10.4% [at 38 µM] (inactive)

Prompt: Suppose we examine the molecule `CC(=O)OCC[N+](C)(C)C` ; what activity change, negative = inhibition value has been reported?
Completion: -2.55% (inactive)

Prompt: Bench note: what activity change, negative = inhibition did `COc1ccccc1N1CCN(CCN2C(=O)CC3(CCCC3)CC2=O)CC1` show?
Completion: -25.1% [at 38 µM] (inactive)

Prompt: Consider the molecule shown here: `CC(=O)[C@@]1(O)CC[C@H]2[C@@H]3C[C@H](C)C4=CC(=O)CC[C@]4(C)[C@H]3CC[C@@]21C` What is its recorded activity change, negative = inhibition?
Completion: 16% (inactive)

Prompt: Suppose we examine the molecule CN1CCCN(C(c2ccccc2)c2ccc(Cl)cc2)CC1 (configuration not stated) ; what activity change, negative = inhibition value has been reported?
Completion: 14.9% (inactive)

Prompt: I have this molecule here, `CC1(C)O[C@@H]2C[C@H]3[C@@H]4CCC5=CC(=O)C=C[C@]5(C)[C@@]4(F)[C@@H](O)C[C@]3(C)[C@]2(C(=O)CO)O1` , and I need its recorded activity change, negative = inhibition.
Completion: 4.43% (inactive)

Prompt: I would be grateful if you could share the reported activity change, negative = inhibition for `C[C@H]1C[C@@H]2[C@H]([C@@H](O)C[C@@]3(C)[C@H]2CC[C@]3(O)C(=O)CO)[C@@]2(C)C=CC(=O)C=C12` .
Completion: 4.57% (inactive)

Prompt: What does the record list as activity change, negative = inhibition for `O=C(O)/C=C(\CC(=O)O)C(=O)O` ?
Completion: 3.65% [at 7.69 µM] (inactive)

Prompt: Any idea what activity change, negative = inhibition was measured for `O=C1NC(c2cccc([N+](=O)[O-])c2)=CCN1c1ccccc1O` ?
Completion: -12.2% [at 38 µM] (inactive)

Prompt: Request the reported activity change, negative = inhibition associated with `CCN(CC)CCOc1ccc(/C(=C(\Cl)c2ccccc2)c2ccccc2)cc1`
Completion: 9.05% (inactive)

Prompt: I would be grateful if you could share the reported activity change, negative = inhibition for `OC(CCCN1CCCCC1)(c1ccccc1)c1ccccc1` .
Completion: 26.6% (inactive)

Prompt: Given `CC(=O)Nc1c(I)c(NC(C)=O)c(I)c(C(=O)O)c1I` , state its recorded activity change, negative = inhibition.
Completion: -1.8% (inactive)

Prompt: Fill blank: measured activity change, negative = inhibition of the molecule `C[N+](C)(C)CCO` is ____.
Completion: 0.911% [at 38 µM] (inactive)

Prompt: // activity change, negative = inhibition lookup, key: `O=C(CCCCC(=O)Nc1c(I)cc(I)c(C(=O)O)c1I)Nc1c(I)cc(I)c(C(=O)O)c1I`
Completion: 2.09% (inactive)

----------
# protocol: Cell Viability - Mesenchymal (AID 546);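 also: cells exposed to compound for 40 hours before reading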
# experimental_context: mesenchymal cells viability, qHTS
Inconclusive results are not listed. Activity calls are given as the source filed them. Calls follow the shape of the dose curve; as a rule, active = well fitted cell-killing curve with a large enough effect; inconclusive = small, poorly fitted or top-dose-only effect; inactive = flat fitted curve, though single readings scatter.
The reply should name one outcome from label 1 for active, label 0 for inactive

Prompt: Dear all, I need the recorded test outcome for `CC(C)(c1ccc(O)cc1)c1ccc(O)cc1` , thank you.
Completion: label 0

Prompt: Hey, what did the test say about `OCc1c[nH]c2ccccc12` ?
Completion: label 0

Prompt: // param item: `O=C(NO)c1ccccc1` ; yields the recorded call
Completion: label 0

Prompt: Please state the recorded outcome for this compound: CCCCC(CC)COC(=O)c1ccccc1C(=O)O (stereo not given)
Completion: label 0

Prompt: I would be grateful if you could indicate the recorded call for `O=C(Oc1ccccc1)c1ccccc1O` .
Completion: label 0

Prompt: Please indicate how the test categorized `O=C(c1ccccc1)c1ccccc1` .
Completion: label 0

Prompt: Write down the call the test reported for this compound. Item: `CC(C)C(C)(C)C(C)(C)C(C)(C)S`
Completion: label 0

Prompt: // param item: `c1ccc2occc2c1` ; yields the recorded call
Completion: label 0

Prompt: Returns: the outcome recorded for `Nc1ccc(O)cc1` in this assay.
Completion: label 1

Prompt: // param item: `Brc1ccccc1-c1ccccc1` ; yields the recorded call
Completion: label 0
